assay: Inhibition of HCV 1a protease 1a domain; design: species or system Hepacivirus hominis
List of log10(IC50) values.
In our notation, the value equals log10 of IC50 in nM.

Solved cases (5 shown):
COc1ccc2c(O[C@@H]3C[C@H]4C(=O)N[C@]5(C(=O)NS(=O)(=O)C6CC6)C[C@H]5/C=C\CCCCC[C@H](NC(=O)N5CCC(C)(C)C5)C(=O)N4C3)cc(-c3nc(C(C)C)cs3)nc2c1C = 0.30
COc1ccc2c(O[C@@H]3C[C@H]4C(=O)N[C@]5(C(=O)NS(=O)(=O)C6CC6)C[C@H]5/C=C\CCCCC[C@H](NC(=O)N5CCOCC5)C(=O)N4C3)cc(-c3nc(C(C)C)cs3)nc2c1C = 0.30
COc1ccc2c(O[C@@H]3C[C@H]4C(=O)N[C@]5(C(=O)NS(=O)(=O)C6CC6)C[C@H]5/C=C\CCCCC[C@H](NC(=O)N5CCC(N6CCCC6)CC5)C(=O)N4C3)cc(-c3nc(C(C)C)cs3)nc2c1C = 0.30
COc1ccc2c(O[C@@H]3C[C@H]4C(=O)N[C@]5(C(=O)NS(=O)(=O)C6CC6)C[C@H]5/C=C\CCCCC[C@H](NC(=O)N5CCN(C6CCCC6)CC5)C(=O)N4C3)cc(-c3nc(C(C)C)cs3)nc2c1C = 0.30
COc1ccc2c(O[C@@H]3C[C@H]4C(=O)N[C@]5(C(=O)NS(=O)(=O)C6CC6)C[C@H]5/C=C\CCCCC[C@H](NC(N)=O)C(=O)N4C3)cc(-c3nc(C(C)C)cs3)nc2c1C = 0.30

Request: Field request: log10(IC50) | item: COc1ccc2c(O[C@@H]3C[C@H]4C(=O)N[C@]5(C(=O)NS(=O)(=O)C6CC6)C[C@H]5/C=C\CCCCC[C@H](NC(=O)N5C[C@@H](C)O[C@@H](C)C5)C(=O)N4C3)cc(-c3nc(C(C)C)cs3)nc2c1C
Response: 0.30

Request: Given the molecule COc1ccc2c(O[C@@H]3C[C@H]4C(=O)N[C@]5(C(=O)NS(=O)(=O)C6CC6)C[C@H]5/C=C\CCCCC[C@H](NC(=O)NCc5ccc(CO)c(O)c5)C(=O)N4C3)cc(-c3nc(C(C)C)cs3)nc2c1C , what is its reported log10(IC50)?
Response: -0.30

Request: Need log10(IC50), item COc1ccc2c(O[C@@H]3C[C@H]4C(=O)N[C@]5(C(=O)NS(=O)(=O)C6CC6)C[C@H]5/C=C\CCCCC[C@H](NC(=O)N5CCC(CC(N)=O)CC5)C(=O)N4C3)cc(-c3nc(C(C)C)cs3)nc2c1C
Response: 0.30

Request: Please look up its log10(IC50): CCN(C)C(=O)N[C@H]1CCCCC/C=C\[C@@H]2C[C@@]2(C(=O)NS(=O)(=O)C2CC2)NC(=O)[C@@H]2C[C@@H](Oc3cc(-c4nc(C(C)C)cs4)nc4c(C)c(OC)ccc34)CN2C1=O
Response: 0.78

Request: Reported log10(IC50), molecule COc1ccc2c(O[C@@H]3C[C@H]4C(=O)N[C@]5(C(=O)NS(=O)(=O)C6CC6)C[C@H]5/C=C\CCCCC[C@H](NC(=O)N5CCS(=O)(=O)CC5)C(=O)N4C3)cc(-c3nc(C(C)C)cs3)nc2c1C : ____
Response: 0.30

Request: Item COc1ccc2c(O[C@@H]3C[C@H]4C(=O)N[C@]5(C(=O)NS(=O)(=O)C6CC6)C[C@H]5/C=C\CCCCC[C@H](NC(=O)N(C)C(C)C)C(=O)N4C3)cc(-c3nc(C4CC4)cs3)nc2c1C has what recorded log10(IC50)?
Response: -0.10

Request: Quick check: log10(IC50) of COc1ccc2c(O[C@@H]3C[C@H]4C(=O)N[C@@]5(C(=O)NS(=O)(=O)C6CC6)C[C@@H]5/C=C/CCCCN(C)C(=O)[C@@H]4C3)cc(-c3nc(C(C)C)cs3)nc2c1C ?
Response: 1.00

Request: What does the record list as log10(IC50) for CCN(CC)C(=O)N[C@H]1CCCCC/C=C\[C@@H]2C[C@@]2(C(=O)NS(=O)(=O)C2CC2)NC(=O)[C@@H]2C[C@@H](Oc3cc(-c4nc(C(C)C)cs4)nc4c(C)c(OC)ccc34)CN2C1=O ?
Response: 0.00

====

test: Inhibition of HCV 1a protease 1a domain; parameters: species or system Hepacivirus hominis
Entries and their IC50 values follow.
Expressed in nM, but write only the number.

Known results for compounds:
COc1ccc2c(O[C@@H]3C[C@H]4C(=O)N[C@]5(C(=O)NS(=O)(=O)C6CC6)C[C@H]5/C=C\CCCCC[C@H](NC(=O)N5CC6CCCC6C5)C(=O)N4C3)cc(-c3nc(C(C)C)cs3)nc2c1C (stereo partly drawn) = 5
CCN(C(=O)N[C@H]1CCCCC/C=C\[C@@H]2C[C@@]2(C(=O)NS(=O)(=O)C2CC2)NC(=O)[C@@H]2C[C@@H](Oc3cc(-c4nc(C5CC5)cs4)nc4c(C)c(OC)ccc34)CN2C1=O)C(C)C = 1

# evaluate next
Request: Data request, read-out IC50, for COc1ccc2c(O[C@@H]3C[C@H]4C(=O)N[C@]5(C(=O)NS(=O)(=O)C6CC6)C[C@H]5/C=C\CCCCC[C@H](NC(=O)N5CCC5)C(=O)N4C3)cc(-c3nc(C(C)C)cs3)nc2c1C
Response: 4

====

system: Hepatitis C virus; assay: Antiviral activity against Hepatitis C virus subtype 1a by stable replicon assay; assay type: functional, organism-based, Hepacivirus hominis
Reported pEC50 values follow for various molecules
Entry type: numeric. Quantity: pEC50, the -log10 of concentration in molar units.

COc1ccc2c(O[C@@H]3C[C@H]4C(=O)N[C@]5(C(=O)NS(=O)(=O)C6CC6)C[C@H]5/C=C\CCCCC[C@H](NC(=O)N5CCS(=O)(=O)CC5)C(=O)N4C3)cc(-c3nc(C(C)C)cs3)nc2c1C = 8.64

Request: If you can, please state the reported pEC50 value of COc1ccc2c(O[C@@H]3C[C@H]4C(=O)N[C@]5(C(=O)NS(=O)(=O)C6CC6)C[C@H]5/C=C\CCCCC[C@H](NC(=O)N5CCC(C)(C)C5)C(=O)N4C3)cc(-c3nc(C(C)C)cs3)nc2c1C .
Response: 9.22

Request: I would be grateful if you could share the reported pEC50 for COc1ccc2c(O[C@@H]3C[C@H]4C(=O)N[C@]5(C(=O)O)C[C@H]5/C=C\CCCCC[C@H](NC(=O)OC5CCCC5)C(=O)N4C3)cc(-c3csc(NC(C)C)n3)nc2c1 .
Response: 8.66

====

Each entry below lists one item and its recorded pEC50 value.
tested on: Hepatitis C virus; assay: Antiviral activity against Hepatitis C virus subtype 1b harboring protease A156S mutant by transient replicon assay; format: functional, organism-based, Hepacivirus hominis; conditions: genotype 1b
// returns pEC50 (minus log10 of molar concentration), number only

# annotated cases, reported pEC50 shown
COc1ccc2c(O[C@@H]3C[C@H]4C(=O)N[C@]5(C(=O)NS(=O)(=O)C6CC6)C[C@H]5/C=C\CCCCC[C@H](NC(=O)N(C(C)C)C(C)C)C(=O)N4C3)cc(-c3nc(C4CC4)cs3)nc2c1C = 9.22
COc1ccc2c(O[C@@H]3C[C@H]4C(=O)N[C@]5(C(=O)NS(=O)(=O)C6CC6)C[C@H]5/C=C\CCCCC[C@H](NC(=O)N5CCC5)C(=O)N4C3)cc(-c3nc(C(C)C)cs3)nc2c1C = 9.70
COc1ccc2c(O[C@@H]3C[C@H]4C(=O)N[C@]5(C(=O)NS(=O)(=O)C6CC6)C[C@H]5/C=C\CCCCC[C@H](NC(=O)NCc5ccc6c(c5)B(O)OC6)C(=O)N4C3)cc(-c3nc(C(C)C)cs3)nc2c1C = 9.70
COc1ccc2c(O[C@@H]3C[C@H]4C(=O)N[C@]5(C(=O)NS(=O)(=O)C6CC6)C[C@H]5/C=C\CCCCC[C@H](NC(=O)N5CCC(CC(=O)O)CC5)C(=O)N4C3)cc(-c3nc(C(C)C)cs3)nc2c1C = 9.70

Attention now shifts to the item below.
Request: // returns reported pEC50 for input COc1ccc2c(O[C@@H]3C[C@H]4C(=O)N[C@]5(C(=O)NS(=O)(=O)C6CC6)C[C@H]5/C=C\CCCCC[C@H](NC(=O)N5CCCC5)C(=O)N4C3)cc(-c3nc(C(C)C)cs3)nc2c1C
Response: 9.70

====

tested on: Hepatitis C virus; assay: Antiviral activity against wild type Hepatitis C virus subtype 1b by transient replicon assay; type: functional, organism-based, Hepacivirus hominis; details: genotype 1b
Friendly reminder: EC50 below 100 pM is Criterion met, at or above is Criterion not met.

CC[C@@H]1C[C@]1(NC(=O)[C@@H]1C[C@@H]2CN1C(=O)[C@H](C(C)(C)C)NC(=O)OCC(C)(C)CCCCc1cccc3c1CN(C3)C(=O)O2)C(=O)NS(=O)(=O)C1CC1 = Criterion not met
CCN(C(=O)N[C@H]1CCCCC/C=C\[C@@H]2C[C@@]2(C(=O)NS(=O)(=O)C2CC2)NC(=O)[C@@H]2C[C@@H](Oc3cc(-c4nc(C5CC5)cs4)nc4c(C)c(OC)ccc34)CN2C1=O)C(C)C = Criterion not met
COc1ccc2c(O[C@@H]3C[C@H]4C(=O)N[C@]5(C(=O)NS(=O)(=O)C6CC6)C[C@H]5/C=C\CCCCC[C@H](NC(=O)N5CCCCC5)C(=O)N4C3)cc(-c3nc(C(C)C)cs3)nc2c1C = Criterion met
COc1ccc2c(O[C@@H]3C[C@H]4C(=O)N[C@]5(C(=O)NS(=O)(=O)C6CC6)C[C@H]5/C=C\CCCCC[C@H](NC(=O)N5CCC(N6CCCC6)CC5)C(=O)N4C3)cc(-c3nc(C(C)C)cs3)nc2c1C = Criterion not met

Lab note: next compound to report on.
Request: Please state whether EC50 is below 100 pM for CCC[C@H](NC(=O)[C@@H]1[C@H]2CCC[C@H]2CN1C(=O)[C@@H](NC(=O)[C@@H](NC(=O)c1cnccn1)C1CCCCC1)C(C)(C)C)C(=O)C(=O)NC1CC1
Response: Criterion not met
